Entry source: PubChem BioAssay (NCI)

Test system: NCI-H460 lung
Test: NCI tumour cell line growth inhibition, 48 h
Exercise: state measured TGI for each of the compounds provided.
Record the value in µM, omitting the unit from your answer.

Problem: Give its TGI value. Item: CC(=O)NC1C(OC(C)C(=O)NC(C(=O)NC(CCC(=O)NCCCNC2c3ccccc3Nc3cccc([N+](=O)[O-])c32)C(N)=O)C(C)C)C(O)C(CO)OC1(C)OCc1ccccc1 (stereo not drawn)
Solution: 0.405

Problem: Give its TGI value. Item: O=C1c2c(Br)sc(Br)c2[C@@H](Cl)[C@H]1Cl
Solution: 40.9

====

Exercise: state measured TGI for each of the compounds provided.
Tested on: CCRF-CEM leukemia
Experiment: NCI tumour cell line growth inhibition, 48 h

Problem: Give its TGI value. Item: COc1ccc(/C=C2\C[C@H]3[C@@H]4CC=C5C[C@@H](OC(C)=O)CC[C@]5(C)[C@H]4CC[C@]3(C)\C2=N\O)cc1OC
Solution: > 100 µM

Problem: Give its TGI value. Item: CO/N=C(/C)c1cccc(Nc2nc3ccc(Cl)cc3c3[nH]c4ccccc4c23)c1
Solution: > 100 µM

Problem: Give its TGI value. Item: CCCCC(C)/C=C/C(=O)C1=C(O)/C(=C/C(=O)O)OC1=O (stereo not given)
Solution: > 100 µM

Problem: Give its TGI value. Item: O=C1Nc2cc(-c3cccc(O)c3)ccc2/C1=C/c1ccc[nH]1
Solution: > 100 µM

Problem: Give its TGI value. Item: C[C@@H]1[C@H](O)CC2=C(CC[C@@H](O)C2(C)C)[C@@]1(CO)CCc1ccoc1
Solution: > 50 µM

Problem: Give its TGI value. Item: CC(C)(C)OP(=O)(OC(C)(C)C)C(O)c1ccc(/C=C(\C#N)C(N)=O)cc1 (stereo not given)
Solution: > 100 µM

Problem: Give its TGI value. Item: C=C1C(=O)OC2C1C(OC(=O)/C(C)=C/C)CC(O)(CCl)C1C(O)C=C(C)C21O (stereo not given)
Solution: > 36.8 µM

Problem: Give its TGI value. Item: [N-]=[N+]=NC1(c2ccccc2)C(=O)C(Cl)=C(c2ccccc2)N(c2ccccc2)C1=O (stereo not given)
Solution: > 100 µM

Problem: Give its TGI value. Item: COc1ccc2c(c1)c1c(n2CCN2CCOCC2)-c2cccc(OC)c2CC1
Solution: 56.8 µM

Problem: Give its TGI value. Item: Cc1csc(NNC(N)=O)n1
Solution: > 100 µM

Problem: Give its TGI value. Item: CC(C)(C)c1cc(C(=O)Nc2ccc(C(=O)NCCN)cc2)cc(C(C)(C)C)c1
Solution: 7.28 µM

Problem: Give its TGI value. Item: [N-]=[N+]=NCCCn1c2c(c3ccc([N+](=O)[O-])cc3c1=O)C(=O)c1cc3c(cc1-2)OCO3
Solution: 0.0679 µM

Problem: Give its TGI value. Item: Cc1cc(C)c2c(n1)S(=O)(=O)N(CCCN1CCN(c3cccc(Cl)c3)CC1)/C(=C(\O)c1ccccc1)C2=O
Solution: > 100 µM

Problem: Give its TGI value. Item: Cc1cccc(C)c1NC(=O)CCc1nnc2s/c(=C\c3ccc(N(C)C)cc3)c(=O)n12
Solution: > 100 µM

Problem: Give its TGI value. Item: COc1cc2oc(=O)cc(C)c2c(OC)c1O
Solution: > 100 µM

Problem: Give its TGI value. Item: OC(c1ccc(Cl)cc1)(c1ccc(Cl)cc1)c1cncnc1
Solution: 54.1 µM

Problem: Give its TGI value. Item: O=C(O)[C@@H]1OCCOCCO[C@@H](C(=O)O)[C@H](C(=O)O)OCCOCCO[C@H]1C(=O)O
Solution: > 73.6 µM

Problem: Give its TGI value. Item: CC1(C)CCCC2(C)C3C(O)CC2(C)C(O)C31 (stereo not given)
Solution: > 100 µM

Problem: Give its TGI value. Item: CCOc1ccccc1NC(=O)C(=O)C(/C(=N/N)C(=O)OC)c1nc2ccc([N+](=O)[O-])cc2[nH]c1=O (stereo not given)
Solution: > 100 µM

Problem: Give its TGI value. Item: COc1ccc2c(c1)CC1COc3cc(OC)ccc3C1O2 (stereo not given)
Solution: > 100 µM

Problem: Give its TGI value. Item: COc1ccc2c3c([nH]c(=O)c2c1C(=O)O)-c1ccccc1CC3
Solution: > 100 µM

Problem: Give its TGI value. Item: N#Cc1c(-c2ccccc2)cc(-c2ccc(N)cc2)[nH]c1=O
Solution: > 100 µM

Problem: Give its TGI value. Item: CCOC(=O)c1nc2ccccc2nc1NCc1ccc(OC)c(OC)c1
Solution: > 100 µM

Problem: Give its TGI value. Item: c1ccc2c(c1)nc1n2CSCC1
Solution: > 100 µM

Problem: Give its TGI value. Item: CN(CCNC(=O)c1c[nH]c2c1ccc1ccccc12)CCNC(=O)c1c[nH]c2c1ccc1ccccc12
Solution: 3.86 µM

Problem: Give its TGI value. Item: CNCCN[C@@H]1c2cc3c(cc2[C@@H](c2cc(OC)c(O)c(OC)c2)[C@H]2C(=O)OC[C@@H]21)OCO3
Solution: 0.117 µM

Problem: Give its TGI value. Item: C=C1c2ccccc2C(=O)c2c1c1c(C(=O)OC)c(OC(=O)OCc3ccc([N+](=O)[O-])cc3)ccc1n2Cc1ccccc1
Solution: 6.83 µM

Problem: Give its TGI value. Item: N#C/C(c1nc2ccccc2[nH]1)=c1\s/c(=C(/N)O)c(=N)n1-c1ccccc1
Solution: > 100 µM

Problem: Give its TGI value. Item: O=C1CCCC/C1=C1/SC(=Nc2ccccc2)C(=Nc2ccccc2)N1c1ccccc1
Solution: > 100 µM

Problem: Give its TGI value. Item: C=C(Cl)/C(=C\Cl)CCC(Cl)C(C)C (stereo not given)
Solution: > 100 µM

Problem: Give its TGI value. Item: Cc1ccc(/C=C2/N=C(N/N=C\C(O)C(O)C(O)CO)NC2=O)cc1 (stereo not given)
Solution: > 100 µM

Problem: Give its TGI value. Item: O=C(Nc1cccc(-n2cc(-c3ccncc3)c(-c3ccc(O)c(Cl)c3)n2)c1)c1ccc2c(c1)OCCO2
Solution: > 100 µM

Problem: Give its TGI value. Item: CCC(=O)NI1OC(=O)c2ccccc21
Solution: > 100 µM

Problem: Give its TGI value. Item: CN(C)CCC(/C=C/c1ccccc1)=N\Nc1ccc(Cl)c(Cl)c1
Solution: 10.1 µM

Problem: Give its TGI value. Item: O/N=C1\CC2(N3CCOCC3)CCC1(c1ccccc1)CC2
Solution: > 100 µM

Problem: Give its TGI value. Item: O=C(NCCc1ccccc1)Nc1ccc2cc3ccc(NC(=O)NCCc4ccccc4)cc3nc2c1
Solution: 0.945 µM

Problem: Give its TGI value. Item: COC(=O)c1cc(OS(=O)(=O)C(F)(F)F)c(=O)n2c1CCCC2
Solution: > 100 µM

Problem: Give its TGI value. Item: CCOC(=O)Nc1nc2ccccc2[nH]1
Solution: > 100 µM

Problem: Give its TGI value. Item: Cc1ccc(S(=O)(=O)N/N=C(\c2nc3ccc([N+](=O)[O-])cc3[nH]c2=O)C(O)c2ccc([N+](=O)[O-])cc2)cc1 (stereo not given)
Solution: > 100 µM

Problem: Give its TGI value. Item: O=c1c2ccccc2[nH]c2c(O)ccc(O)c12
Solution: > 88.6 µM
